The origin of these recorded values is ChEMBL document CHEMBL4765292.

Tested on: Vero
Test: Cytotoxicity against African green monkey Vero cells assessed as reduction in cell viability incubated for 72 hrs by SRB assay
Format: cell-based
Conditions: Chlorocebus sabaeus
measure_name: IC50 (µM)
Give bare numbers, in µM.

- smiles_text: "CC1(C)N=C(N)N=C(N)N1OCCCSc1ccccc1Cl"
  measured: 14.6
- smiles_text: "CC1(C)NC(N)=NC(=N)N1OCCCCOc1ccccc1"
  measured: 9.8
- smiles_text: "CC1(C)N=C(N)N=C(N)N1OCCCOc1ccc(F)cc1Cl"
  measured: 21.4

API: the following record is the query input.
Query block: # query: IC50 | item "CN(CCCON1C(N)=NC(N)=NC1(C)C)c1ccc(Cl)cc1" | system: Vero
Result block: 45
